test-description: Quantitative High-Throughput drug screen in 47 multiple myeloma cell lines against the NCATS MIPE library collection: MMM1_PLB cell viability assay (AID 1918976); further: nearly all actives have a fitted effect of over 35% in size
condition-summary: MMM1 myeloma cells viability, CellTiter-Glo, 48 h; series mostly up to 45.8 µM
Inconclusive results are not listed. Active and inactive are the calls of the source. The call rests on the fitted dose curve; in most records, active means well fitted cell-killing curve with a large enough effect; inconclusive means small, poorly fitted or top-dose-only effect, or effect the other way; inactive means no such curve, though single readings can be large or run the other way.
The reply should be one of these categories: 1 (active), -1 (inactive)

Q) # outcome recorded in this test, key = Cc1cnn(C)c1C(=O)Nc1cc(Nc2ccc3c(C=Cc4ccccn4)n[nH]c3c2)ccc1F
A) 1

Q) # outcome recorded in this test, key = C#C[C@]1(O)CC[C@@H]2[C@@H]3CCc4cc(O)ccc4[C@H]3CC[C@@]21C
A) 1

Q) # outcome recorded in this test, key = CC[C@H]1OC(=O)[C@H](C)[C@@H](O[C@H]2C[C@@](C)(OC)[C@@H](O)[C@H](C)O2)[C@H](C)[C@@H](O[C@@H]2O[C@H](C)C[C@H](N(C)C)[C@@H]2O)[C@](C)(OC)C[C@@H](C)C(=O)[C@H](C)[C@@H](O)[C@]1(C)O
A) -1

Q) # outcome recorded in this test, key = COc1cc2c(Nc3ccc(Cl)c(Cl)c3F)ncnc2cc1OCC1C[C@@H]2CN(C)C[C@H]2C1
A) 1

Q) # outcome recorded in this test, key = CN[C@H]1[C@@H](O)[C@@H]2O[C@@H]3O[C@H](C)CC(=O)[C@]3(O)O[C@@H]2[C@@H](NC)[C@H]1O
A) 1

Q) # outcome recorded in this test, key = O=[N+]([O-])c1cn2c(n1)OC[C@@H](OCc1ccc(OC(F)(F)F)cc1)C2
A) 1

Q) # outcome recorded in this test, key = O=C(O)C[C@H](O)C[C@H](O)C=Cc1c(C2CC2)nc2ccccc2c1-c1ccc(F)cc1
A) 1

Q) # outcome recorded in this test, key = CN(C)CCN1C(=O)c2cccc3cc(N)cc(c23)C1=O
A) 1

Q) # outcome recorded in this test, key = CCCCC(=O)O[C@]1(C(=O)CO)[C@@H](C)C[C@H]2[C@@H]3CCC4=CC(=O)C=C[C@]4(C)[C@@]3(F)[C@@H](O)C[C@@]21C
A) -1

Q) # outcome recorded in this test, key = COc1cc2c(cc1O)CCC1C2CC[C@@]2(C)C1CC[C@@H]2O (stereo partly specified)
A) 1

Q) # outcome recorded in this test, key = C#CCC(Cc1cnc2nc(N)nc(N)c2n1)c1ccc(C(=O)N[C@@H](CCC(=O)O)C(=O)O)cc1 (stereo partly specified)
A) -1

Q) # outcome recorded in this test, key = COc1cc(N2CCC(C(N)=O)CC2)ccc1Nc1nc(N)c(Cl)c(Nc2ccccc2S(=O)(=O)C(C)C)n1
A) 1

Q) # outcome recorded in this test, key = C[C@H](CCC(=O)O)[C@H]1CCC2C3C[C@H](O)[C@@H]4C[C@H](O)CC[C@]4(C)C3CC[C@@]21C (stereo partly specified)
A) 1

Q) # outcome recorded in this test, key = CCc1nc(-c2cccc(C)c2)c(-c2ccnc(NC(=O)c3ccccc3)c2)s1
A) 1

Q) # outcome recorded in this test, key = C=Cc1c(C)c2cc3nc(cc4[nH]c(cc5nc(cc1[nH]2)C(C)=C5CCC(=O)O)c(CCC(=O)OC)c4C)[C@@]1(C)C3=CC=C(C(=O)OC)[C@H]1C(=O)OC
A) 1

Q) # outcome recorded in this test, key = CNC(=O)Nc1ccc(-c2nc(N3CC4CCC(C3)O4)c3cnn(C4CCC5(CC4)OCCO5)c3n2)cc1
A) 1

Data provenance is PubChem BioAssay (NCATS).
